B1: PhoQ; a variant is named by its letters at X, in order, P23837 (parent)
chain: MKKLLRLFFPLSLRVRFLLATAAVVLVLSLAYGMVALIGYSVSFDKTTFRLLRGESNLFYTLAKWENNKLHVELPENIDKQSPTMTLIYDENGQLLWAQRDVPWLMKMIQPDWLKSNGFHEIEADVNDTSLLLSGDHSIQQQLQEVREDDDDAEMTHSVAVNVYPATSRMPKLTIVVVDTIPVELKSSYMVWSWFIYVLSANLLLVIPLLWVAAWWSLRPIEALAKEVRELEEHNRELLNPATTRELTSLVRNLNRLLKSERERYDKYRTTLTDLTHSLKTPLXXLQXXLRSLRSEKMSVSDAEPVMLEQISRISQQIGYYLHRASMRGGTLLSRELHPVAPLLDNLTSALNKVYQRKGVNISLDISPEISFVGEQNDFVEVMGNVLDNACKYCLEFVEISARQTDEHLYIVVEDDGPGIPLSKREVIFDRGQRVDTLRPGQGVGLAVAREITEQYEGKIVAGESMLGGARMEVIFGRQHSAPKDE

- Variants of: B1
- Assay notes: enrichment ratio after two sorts for PhoP signalling (ratio (wild type AVST 3.29)); higher = more functional
- Run parameters: with PhoP (E. coli)
Over roughly 140,000 sequences, “enrichment ratio after two sorts for PhoP signalling” has its median near 0; the highest 2% begin near 11. What follows is part of a selection rich in the highest values, with near analogues and random picks from the rest.

{"Variant annotation": "YEFI", "enrichment ratio": "≤ 0.25"}
{"Variant annotation": "IAWT", "enrichment ratio": "≤ 0.25"}
{"Variant annotation": "WTPQ", "enrichment ratio": "≤ 0.25"}
{"Variant annotation": "KQFD", "enrichment ratio": "≤ 0.25"}
{"Variant annotation": "TGIN", "enrichment ratio": "≤ 0.25"}
{"Variant annotation": "SMDI", "enrichment ratio": "≤ 0.25"}
{"Variant annotation": "MATM", "enrichment ratio": 22.6}
{"Variant annotation": "RFVW", "enrichment ratio": "≤ 0.25"}
{"Variant annotation": "DDSK", "enrichment ratio": "≤ 0.25"}
{"Variant annotation": "AQCN", "enrichment ratio": 4.1}
{"Variant annotation": "FLNY", "enrichment ratio": "≤ 0.25"}
{"Variant annotation": "SFFA", "enrichment ratio": "≤ 0.25"}
{"Variant annotation": "AQNL", "enrichment ratio": "≤ 0.25"}
{"Variant annotation": "WHNP", "enrichment ratio": "≤ 0.25"}
{"Variant annotation": "DREF", "enrichment ratio": "≤ 0.25"}
{"Variant annotation": "WMKH", "enrichment ratio": "≤ 0.25"}
{"Variant annotation": "TKLY", "enrichment ratio": 16.4}
{"Variant annotation": "NIIM", "enrichment ratio": "≤ 0.25"}
{"Variant annotation": "APYT", "enrichment ratio": "≤ 0.25"}
{"Variant annotation": "HKLY", "enrichment ratio": "≤ 0.25"}
{"Variant annotation": "SGTG", "enrichment ratio": 15.9}
{"Variant annotation": "SGIN", "enrichment ratio": 11.4}
{"Variant annotation": "RWWL", "enrichment ratio": "≤ 0.25"}
{"Variant annotation": "NKDQ", "enrichment ratio": "≤ 0.25"}
{"Variant annotation": "MAPM", "enrichment ratio": "≤ 0.25"}
{"Variant annotation": "KAIN", "enrichment ratio": "≤ 0.25"}
{"Variant annotation": "EMDR", "enrichment ratio": "≤ 0.25"}
{"Variant annotation": "CFLI", "enrichment ratio": "≤ 0.25"}
{"Variant annotation": "FMTM", "enrichment ratio": "≤ 0.25"}
{"Variant annotation": "GVWM", "enrichment ratio": "≤ 0.25"}
{"Variant annotation": "VWPM", "enrichment ratio": "≤ 0.25"}
{"Variant annotation": "PKCE", "enrichment ratio": "≤ 0.25"}
{"Variant annotation": "IESV", "enrichment ratio": "≤ 0.25"}
{"Variant annotation": "GRSL", "enrichment ratio": "≤ 0.25"}
{"Variant annotation": "RPVE", "enrichment ratio": "≤ 0.25"}
{"Variant annotation": "NGLI", "enrichment ratio": 2.73}
{"Variant annotation": "EAYE", "enrichment ratio": "≤ 0.25"}
{"Variant annotation": "WFVI", "enrichment ratio": "≤ 0.25"}
{"Variant annotation": "VEQN", "enrichment ratio": "≤ 0.25"}
{"Variant annotation": "KLNV", "enrichment ratio": "≤ 0.25"}
{"Variant annotation": "AQLS", "enrichment ratio": 10.2}
{"Variant annotation": "WNVD", "enrichment ratio": "≤ 0.25"}
{"Variant annotation": "MDSV", "enrichment ratio": "≤ 0.25"}
{"Variant annotation": "EYFG", "enrichment ratio": "≤ 0.25"}
{"Variant annotation": "SCPW", "enrichment ratio": "≤ 0.25"}
{"Variant annotation": "NAIN", "enrichment ratio": "≤ 0.25"}
{"Variant annotation": "AQLA", "enrichment ratio": 19}
{"Variant annotation": "SNCM", "enrichment ratio": 11.2}
{"Variant annotation": "MQIN", "enrichment ratio": "≤ 0.25"}
{"Variant annotation": "ANLY", "enrichment ratio": 12}
{"Variant annotation": "GGIM", "enrichment ratio": 13.9}
{"Variant annotation": "FHFT", "enrichment ratio": "≤ 0.25"}
{"Variant annotation": "AQLN", "enrichment ratio": 31.6}
{"Variant annotation": "KHVC", "enrichment ratio": "≤ 0.25"}
{"Variant annotation": "AILY", "enrichment ratio": 1.94}
{"Variant annotation": "GNIM", "enrichment ratio": 13.4}
{"Variant annotation": "KCCR", "enrichment ratio": "≤ 0.25"}
{"Variant annotation": "DWIG", "enrichment ratio": "≤ 0.25"}

Origin of measurements: a collection of fitness landscapes (doi:10.1126/science.1257360)
